Values compiled from ChEMBL document CHEMBL1133923.

- Test system: Human immunodeficiency virus 1
- ASSAY NAME: microbe, parasite or virus in culture
- TEST SETTINGS: Human immunodeficiency virus 1, MT4
- Description: Inhibitory activity against 100I strain of HIV-I in MT-4 cells
Decide using IC50 alone. Strictly below 0.03 µM: yes (1). Equal to or above 0.03 µM: no (0).

Problem: Regarding `Cc1cc(C#N)cc(C)c1Nc1ccnc(Nc2ccc(C#N)cc2)n1` , kindly confirm whether its IC50 is beneath 0.03 µM.
Result: no (0)

Problem: What about `Cc1cc(C#N)cc(C)c1Nc1nc(Nc2ccc(C#N)cc2)ncc1Cl` ?
Result: yes (1)

Problem: What about `Cc1cc(Br)c(Nc2ccnc(Nc3ccc(C#N)cc3)n2)c(Br)c1` ?
Result: yes (1)

Problem: What about `N#Cc1ccc(Nc2cc(N)nc(Cc3c(Cl)cccc3Cl)n2)cc1` ?
Result: no (0)

Problem: What about `Cc1cc(Br)cc(C)c1Sc1ccnc(Nc2ccc(C#N)cc2)n1` ?
Result: no (0)

Problem: What about `C#Cc1cc(C)c(Oc2ccnc(Nc3ccc(C#N)cc3)n2)c(C)c1` ?
Result: no (0)

Problem: What about `Cc1cc(C)c(Nc2nc(Nc3ccc(C#N)cc3)ncc2Br)c(C)c1` ?
Result: yes (1)
